Tested on: OVCAR-4 ovarian
Method Summary: NCI-60 one-dose screen, 48 h (100 = growth as untreated, 0 = no growth, -100 = all killed)
Run Parameters: 10 µM unless noted
The panel holds about 83,000 compounds, 20% with a hit somewhere; the sample as a whole holds those more often.
# if measured growth < 50%: Condition met  # else: Condition not met

Bench note: check whether `COc1ccc(NC(=O)c2ccc(Nc3ncnc4c3cnn4-c3cccc(F)c3)cc2)cc1` shows growth below 50%
Condition not met

Bench note: check whether `Cn1cc(-c2nc3c(F)cc4[nH]ncc4c3c3c2CCCC3)c(C(F)(F)F)n1` shows growth below 50%
Condition not met

Bench note: check whether `COc1ccc(OC)c(Nc2nnc(-c3cc(OC)c(OC)c(OC)c3)o2)c1` shows growth below 50%
Condition not met

Bench note: check whether `c1csc(-c2cn3nc(-c4c[nH]c5ccccc45)sc3n2)c1` shows growth below 50%
Condition met

Bench note: check whether `Cc1c2cnccc2c(C)c2c1c1cc(CO)ccc1n2C` shows growth below 50%
Condition met

Bench note: check whether `Cc1c(O)cc(-c2cnc(N/N=C/c3ccccc3)s2)c(O)c1C` shows growth below 50%
Condition not met

Bench note: check whether `CC1=Nc2cnc(Nc3ccc(N4CCCCC4)cc3)nc2Nc2ccccc21` shows growth below 50%
Condition not met

Bench note: check whether `COC(=O)[C@@]1(C)CC[C@]2(C)CC[C@]3(C)C4=CC=C5C(=CC(=O)C(O)=C5C)[C@]4(C)[C@@H](O)C[C@@]3(C)[C@@H]2C1` shows growth below 50%
Condition met

Bench note: check whether `COc1cc(Cc2cc(-c3ccccc3)nn(Cc3ccccc3)c2=O)cc(OC)c1OC` shows growth below 50%
Condition met

Bench note: check whether `O=C(OCc1ccc2c(Cl)cc(Cl)c(O)c2n1)N1CCN(C(=O)c2cc3ccccc3[nH]2)CC1` shows growth below 50%
Condition met

Bench note: check whether `O=c1cc(C(F)(F)F)c2cc(-c3cc4ccccc4c(=O)o3)c(O)cc2o1` shows growth below 50%
Condition not met

Bench note: check whether `COc1ccc(/C=N/NC(=O)Cn2c(-c3ccc(S(C)(=O)=O)cc3)nc3ccccc32)cc1` shows growth below 50%
Condition not met

Bench note: check whether `CS(=O)(=O)Nc1cc(-c2ccc3ncnc(Nc4ccc(OCc5ccccn5)c(Cl)c4)c3c2)cnc1Cl` shows growth below 50%
Condition met

Bench note: check whether `N#Cc1c(-c2cccc(Cl)c2)cc(-c2cccnc2)[nH]c1=O` shows growth below 50%
Condition not met

Bench note: check whether `C=CN(C(=O)N1CCN(c2cc3c(cc2F)c(=O)c(C(=O)O)cn3C2CC2)CC1)c1nc(-c2ccccc2)cs1` shows growth below 50%
Condition not met

Bench note: check whether `CN1c2ccccc2S(=O)(=O)n2c(SCC(=O)Nc3nc4ccc(F)cc4s3)nnc21` shows growth below 50%
Condition not met

Bench note: check whether `CC(C)(C)c1ccc(C(=O)N/N=C/c2ccc(O)cc2O)cc1` shows growth below 50%
Condition met

Bench note: check whether `O=c1ccc2ccc(OCCN3CCCCC3)cc2o1` shows growth below 50%
Condition not met

Bench note: check whether `O=C1Nc2ccc(Cl)cc2/C1=C/c1ccc[nH]1` shows growth below 50%
Condition met

* * *

Tested on: HOP-92 NSCLC
Method Summary: NCI-60 one-dose screen, 48 h
Run Parameters: 10 µM unless noted
About 83,000 compounds went through this panel and 20% of them were active in at least one assay; those are over-represented in the sample as a whole. The source made the active and inactive calls. Rule for the calls: active = growth percent below 10; inactive = the rest.
Give your call using only these classes: YES for active, NO for inactive

For this compound, state the assay outcome: `CN1CCOCCN(C)Cc2ccc3ccc(cc3c2)CN(C)CCOCCN(C)Cc2ccc3ccc(cc3c2)C1`
NO

For this compound, state the assay outcome: CCn1cc(C(=O)O)c(=O)c2cc(F)c(N3CCN(CC(=O)Nc4ccccc4)C(C)C3)c(F)c21 (stereo unspecified)
NO

For this compound, state the assay outcome: `O=C(NCc1ccc(Cn2c(=O)sn(-c3ccccc3)c2=O)cc1)OCc1ccc2cccc(O)c2n1`
YES

For this compound, state the assay outcome: `COc1cc(C=C2C(=O)NC(=S)NC2=O)cc(CN2CCCC2)c1O`
NO

For this compound, state the assay outcome: CCn1cc(C(=O)N/N=C/c2ccccc2)c(=O)c2cc(F)c(N3CCNC(C)C3)c(F)c21 (stereo unspecified)
NO

For this compound, state the assay outcome: `O=c1ccc2ccc(OCCN3CCCCC3)cc2o1`
YES

For this compound, state the assay outcome: [N-]=[N+]=NCC1OC(n2cnc3c(NC(=O)Nc4ccccc4)ncnc32)C2OC(=O)CC12 (stereo unspecified)
NO

For this compound, state the assay outcome: COc1ccc(C2C3=C(COC3=O)N(CCO)c3cc4c(cc32)OCO4)cc1OC (stereo unspecified)
NO

For this compound, state the assay outcome: `Fc1cccc(-c2nc(-c3c[nH]c4ncccc34)cs2)c1`
NO

For this compound, state the assay outcome: CC[C@@H](C(=O)[C@@H](C)[C@@H](O)[C@H](C)[C@@H]1O[C@@H]([C@@H](CC)C(=O)ONC(=O)c2ccccc2O)CC[C@@H]1C)C1O[C@]2(C=CC(=O)[C@]3(CC[C@@](C)([C@H]4CC[C@](O)(CC)[C@H](C)O4)O3)O2)[C@H](C)C[C@@H]1C (stereo partly specified)
NO

For this compound, state the assay outcome: `CCOC(=O)NC(=S)n1oc(=O)c2ccccc21`
NO

For this compound, state the assay outcome: `CCN1C2CCC1/C(=C\c1ccccc1)C(=O)/C2=C/c1ccccc1`
NO

For this compound, state the assay outcome: `CCOc1ccc(/C=C/C(=O)c2cccc(OCCCOc3cccc(C(=O)/C=C/c4ccc(OCC)cc4)c3)c2)cc1`
NO

For this compound, state the assay outcome: `COc1cc2c(cc1-c1c(C)noc1C)ncc1nc(CN3CCOCC3)n([C@H](C)COC(F)F)c12`
YES

For this compound, state the assay outcome: `COc1cc(Cc2cc(-c3ccccc3)nn(Cc3ccccc3)c2=O)cc(OC)c1OC`
NO

For this compound, state the assay outcome: `CCOC(=O)c1nnn(-c2no[n+]([O-])c2-c2ccc(OC)cc2)c1COc1cccc2cccnc12`
NO

For this compound, state the assay outcome: `Oc1c(CN2CCC(N3CCOCC3)CC2)cc(Cc2cc(CN3CCC(N4CCOCC4)CC3)c(O)c3ncccc23)c2cccnc12`
NO

For this compound, state the assay outcome: `CNC(=O)c1cc(Oc2ccc3c(c2)sc2nc(-c4cc(C(F)(F)F)cc(C(F)(F)F)c4)cn23)ccn1`
NO

For this compound, state the assay outcome: COc1cc2c(c(OC)c1OC)C(=O)CC(c1cccc(C(=O)Nc3ccccc3Br)c1)O2 (stereo unspecified)
NO

For this compound, state the assay outcome: COC(=O)c1nc(-c2ccccc2)oc1S(=O)(=O)N1CCCC(C)C1 (stereo unspecified)
NO

For this compound, state the assay outcome: `COCC(=O)Oc1cc(-c2ccc(C)cc2C)c(OC(=O)COC)c(-c2ccc(C)cc2C)c1`
NO

For this compound, state the assay outcome: Clc1cccc(C2Cc3cnccc3-c3[nH]c4ccncc4c32)c1 (stereo unspecified)
NO

For this compound, state the assay outcome: O=S(Nc1ccccc1)c1ccc(Cl)cc1 (stereo unspecified)
NO

For this compound, state the assay outcome: C=C(C)[C@@H]1CC[C@]2(COC3CCCCO3)CC[C@]3(C)[C@H](CC[C@@H]4[C@@]5(C)C=C(C=O)C(=O)C(C)(C)[C@@H]5CC[C@]43C)[C@@H]12 (stereo partly specified)
YES

For this compound, state the assay outcome: `CNCCCNc1nc2ccccc2c2c(=O)c3cc(Cl)ccc3sc12`
YES

For this compound, state the assay outcome: `CN(C)c1ccc(/C=N\NC(=O)c2ccc3nc(-c4ccc(Cl)cc4)[nH]c3c2)cc1`
NO

For this compound, state the assay outcome: `COc1ccc(/C=N/Nc2c3ccccc3nc3ccccc23)cc1`
NO

For this compound, state the assay outcome: CC12OC(CC(O)C1O)n1c3ccccc3c3c4c(c5c6ccccc6n2c5c31)C(=O)N(CCN1CCCC1)C4=O (stereo unspecified)
NO

For this compound, state the assay outcome: `CCCCCCCCn1ccc2cc(NC(=O)CN3CCN(c4cc(C)nc(Cl)n4)CC3)ccc21`
NO

For this compound, state the assay outcome: `O=C(c1c[nH]c2ccccc12)c1n[nH]c(=S)n1-c1ccc([N+](=O)[O-])cc1`
NO

For this compound, state the assay outcome: `COc1cc(C=Nc2oc(-c3ccccc3)c(-c3ccccc3)c2C#N)cc(CN2CCCC2)c1O`
NO

For this compound, state the assay outcome: `CN1CCN(Cc2ccc(NC(=O)c3cncc(C#Cc4cnc(N)cc4C#N)c3)cc2C(F)(F)F)CC1`
YES

For this compound, state the assay outcome: `Cc1nn(-c2ccc([N+](=O)[O-])cc2)c2ncnc(N/N=C/c3ccccc3O)c12`
NO

For this compound, state the assay outcome: `Cc1nn(C)c2ncnc(N/N=C/c3cccc(O)c3O)c12`
NO

For this compound, state the assay outcome: `COc1ccc2c(c1)oc1c(C)c3c(c(C)c12)C(=O)N(CCOS(C)(=O)=O)C3=O`
NO

For this compound, state the assay outcome: `C[C@H]1[C@H](C)CC[C@]2(C(=O)NCCNCCN)CC[C@]3(C)C(=CC[C@@H]4[C@@]5(C)CCC(=O)C(C)(C)[C@@H]5CC[C@]43C)[C@H]12`
NO
